system: NCI-H522; test: relative viability (nuclei count vs DMSO), 5 days (fraction); higher = more cells survive; conditions: first compound 0.01581 µM
Kindly supply the reported relative viability values for the records listed here.
Reply with just the number.

Input: Quick one: give measured relative viability for COc1cc2nccc(Oc3ccc(NC(=O)Nc4cc(C)on4)c(Cl)c3)c2cc1OC [Tivozanib] + Nc1ncn([C@H]2C[C@H](O)[C@@H](CO)O2)c(=O)n1 [Decitabine] (partner 2 µM)
Output: 0.68

Input: Quick one: give measured relative viability for COc1cc2nccc(Oc3ccc(NC(=O)Nc4cc(C)on4)c(Cl)c3)c2cc1OC [Tivozanib] + CC(=O)c1c(C)c2cnc(Nc3ccc(N4CCNCC4)cn3)nc2n(C2CCCC2)c1=O [Palbociclib] (partner 0.5 µM)
Output: 0.849

Input: Quick one: give measured relative viability for COc1cc2nccc(Oc3ccc(NC(=O)Nc4cc(C)on4)c(Cl)c3)c2cc1OC [Tivozanib] + CC(=O)Nc1cccc(-n2c(=O)n(C3CC3)c(=O)c3c(Nc4ccc(I)cc4F)n(C)c(=O)c(C)c32)c1 [Trametinib] (partner 0.02 µM)
Output: 0.732

Input: Quick one: give measured relative viability for Nc1ccn([C@@H]2O[C@H](CO)[C@@H](O)[C@@H]2O)c(=O)n1 [Cytarabine] + COc1cccc2cc(-c3nc([C@H]4CC[C@H](C(=O)O)CC4)n4ncnc(N)c34)[nH]c12 [OSI-027] (partner 0.5 µM)
Output: 0.599

Input: Quick one: give measured relative viability for COc1cc2nccc(Oc3ccc(NC(=O)Nc4cc(C)on4)c(Cl)c3)c2cc1OC [Tivozanib] + Nc1nc2[nH]cc(CCc3ccc(C(=O)N[C@@H](CCC(=O)O)C(=O)O)cc3)c2c(=O)[nH]1 [Pemetrexed] (partner 0.2 µM)
Output: 1.1

Input: Quick one: give measured relative viability for COc1cc2nccc(Oc3ccc(NC(=O)Nc4cc(C)on4)c(Cl)c3)c2cc1OC [Tivozanib] + O=C(c1cc(Cc2n[nH]c(=O)c3ccccc23)ccc1F)N1CCN(C(=O)C2CC2)CC1 [Olaparib] (partner 8 µM)
Output: 0.635

Input: Quick one: give measured relative viability for Nc1ccn([C@@H]2O[C@H](CO)[C@@H](O)[C@@H]2O)c(=O)n1 [Cytarabine] + Cc1nc(Nc2ncc(C(=O)Nc3c(C)cccc3Cl)s2)cc(N2CCN(CCO)CC2)n1 [Dasatinib] (partner 0.075 µM)
Output: 0.802
